A collection of sequences and their measured switch fluorescence ratio
# System: ATP;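 note: ATP exposure 15 min at 22 °C before imaging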
# METHOD SUMMARY: switch fluorescence ratio, 500 uM ATP over buffer (Cy3 cluster intensity, sum of 5 cycles each) (fold (ratio)); higher = stronger signal-on switching upon ATP binding; sequences stand for … in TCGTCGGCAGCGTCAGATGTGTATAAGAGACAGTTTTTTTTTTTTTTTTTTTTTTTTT…TC
# CONDITION CONTEXT: aptamer strand: ATP DNA aptamer (quencher-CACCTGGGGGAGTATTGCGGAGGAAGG + anchor), 100 nM annealed; ATP concentration: 500 uM
Give a plain numeric answer without units written out.

*Q* Tell me the measured switch fluorescence ratio of AGAAGTCGTG , please.
*A* 1.02

*Q* Tell me the measured switch fluorescence ratio of GCCGTTGCAT , please.
*A* 1.02

*Q* Tell me the measured switch fluorescence ratio of TTCAAGACGG , please.
*A* 0.995

*Q* Tell me the measured switch fluorescence ratio of AAGTGGTTAG , please.
*A* 0.98

*Q* Tell me the measured switch fluorescence ratio of AGGCCGTCCT , please.
*A* 1.02

Origin of the recorded values: the supplement of paper PMC10126150
